molecular target: muscarinic cholinergic receptor; test: [3H] Quinuclidinyl Benzilate (QNB) Binding Assay, cerebral cortex; conditions: 3H-QNB 0.25 nM, rat cerebral cortex, 25° C., 120 minutes, pH 7.4; read-out: Ki, ^3 H-QNB (ctx)
pKi: −log10 of the molar value.
Entries and their pKi

molecular_string	target	pKi
CN1C[C@H]2C[C@@H]1CN2c1cnccn1	muscarinic cholinergic receptor	< 3.00
c1nsc(N2C[C@H]3C[C@@H]2CN3)n1	muscarinic cholinergic receptor	< 3.00
CN1C[C@@H]2C[C@H]1CN2c1sccc1[N+](=O)[O-]	muscarinic cholinergic receptor	< 3.00
